I'd be grateful if you could share measured log10 of IC50 for these entries.
molecular target: aldosterone receptor (Rattus norvegicus); construct: centrifuged at 105,000 g for 30 minutes, and then a supernatant was collected as a renal soluble fraction; test: Binding inhibition test for aldosterone receptor ([3H]aldosterone, rat renal soluble fraction); conditions: [3H]aldosterone 2 nM, rat renal soluble fraction, in the presence of 2 μM RU-486, 4° C. about 18 hours; read-out: MR IC50
Lab note - IC50 converted to log10 from values in nM.

State its log10 of IC50 for this molecule: COc1cc(NC(=O)c2ccc(-c3ccccc3CN3CCOCC3)cc2)ccc1S(N)(=O)=O [Example 22]
3.20

Consider the molecule CS(=O)(=O)c1ccc(NC(=O)c2ccc(-c3ccccc3OC(F)(F)F)c(CNC3CC3)c2)cc1 [Example 513] . State its measured log10 of IC50.
2.85

Return reported log10 of IC50. Input molecule: CS(=O)(=O)c1ccc(NC(=O)c2ccc(-c3ccccc3OC(F)(F)F)c(CN[C@H]3CCCc4ccccc43)c2)cc1 [Example 211]
2.96

Entry COc1cc(NC(=O)c2ccc(-c3ccccc3C(F)(F)F)c(CCl)c2)ccc1S(N)(=O)=O [Example 81] needs its log10 of IC50 filled in; supply it.
2.08

Answer with the recorded log10 of IC50 for the molecule listed here: COc1cc(C(=O)Nc2ccc(-c3ccccc3NC3CCCC3)c(C)c2)ccc1S(N)(=O)=O [Example 346]
3.04

Input COc1cc(NC(=O)c2ccc(-c3cccc4cccnc34)c(C)c2)ccc1S(N)(=O)=O [Example 537] , output reported log10 of IC50.
3.73

Supply log10 of IC50 value. Item: COc1cc(C(=O)Nc2ccc(-c3ccc(OCCO)cc3C(F)(F)F)c(CO)c2)ccc1S(N)(=O)=O [Example 320]
3.40

Given the molecule COc1cc(NC(=O)c2ccc(-c3ccccc3-c3cccs3)c(CO)c2)ccc1S(N)(=O)=O [Example 257] , write its reported log10 of IC50.
1.92

Annotate the molecule COc1cc(NC(=O)c2ccc(-c3ccccc3C(F)(F)F)c(OCCO)c2)ccc1S(N)(=O)=O [Example 121] with its measured log10 of IC50.
2.72

Specify reported log10 of IC50 for the molecule shown: COc1cc(C(=O)Nc2ccc(-c3ccccc3C(F)(F)F)c(Cn3nccn3)c2)ccc1S(N)(=O)=O [Example 407]
2.41

----------
So I've got a bunch of compounds here, and I need their IC50 values.
Target: aldosterone receptor (Rattus norvegicus, UniProt P22199)
Construct: centrifuged at 105,000 g for 30 minutes, and then a supernatant was collected as a renal soluble fraction
Assay: Binding inhibition test for aldosterone receptor ([3H]aldosterone, rat renal soluble fraction)
Conditions: [3H]aldosterone 2 nM, rat renal soluble fraction, in the presence of 2 μM RU-486, 4° C. about 18 hours; read-out: MR IC50
Method: Binding Inhibition Test for Aldosterone Receptor A rat was layed open in flank regions (on both sides) to remove both adrenal glands. After stitching up the incision, the rat was returnd to a breeding cage again. After removing the kidney from the rat reared for about 3 to 5 days, the kidney was homogenized in 0.1 M Tris-HCl, 0.25M sucrose, 0.1M Na2MoO4 and 2 mM DTT buffer solution (pH7.4). […]
# number only, unit nM dropped from output

Under aldosterone receptor (Rattus norvegicus, UniProt P22199): report IC50 of COc1cc(C(=O)Nc2ccc(-c3ccccc3C(F)(F)F)c(CN3CC(C)OC(C)C3)c2)ccc1S(N)(=O)=O (stereo not shown) .
450

Fill in IC50 for CNS(=O)(=O)c1ccc(NC(=O)c2ccc(-c3ccccc3C(F)(F)F)cc2)cc1OC tested with aldosterone receptor (Rattus norvegicus, UniProt P22199).
200

Provide IC50, recorded with aldosterone receptor (Rattus norvegicus, UniProt P22199), of CCC(CC)NCc1cc(NC(=O)c2ccc(S(N)(=O)=O)c(OC)c2)ccc1-c1ccccc1C(F)(F)F
1000

Report its IC50 with aldosterone receptor (Rattus norvegicus, UniProt P22199) as the test system: COc1cc(C(=O)Nc2ccc(-c3ccccc3C(F)(F)F)c(CN3CC[C@H](F)C3)c2)ccc1S(N)(=O)=O
380

Please indicate recorded IC50 of COc1cc(NC(=O)c2ccc(-c3cccnc3C3CC3)c(C)c2)ccc1S(N)(=O)=O measured with aldosterone receptor (Rattus norvegicus, UniProt P22199).
1600

----------
Target: aldosterone receptor (Rattus norvegicus, UniProt P22199)
Construct: centrifuged at 105,000 g for 30 minutes, and then a supernatant was collected as a renal soluble fraction
Assay: Binding inhibition test for aldosterone receptor ([3H]aldosterone, rat renal soluble fraction)
Conditions: [3H]aldosterone 2 nM, rat renal soluble fraction, in the presence of 2 μM RU-486, 4° C. about 18 hours; read-out: MR IC50
Method: Binding Inhibition Test for Aldosterone Receptor A rat was layed open in flank regions (on both sides) to remove both adrenal glands. After stitching up the incision, the rat was returnd to a breeding cage again. After removing the kidney from the rat reared for about 3 to 5 days, the kidney was homogenized in 0.1 M Tris-HCl, 0.25M sucrose, 0.1M Na2MoO4 and 2 mM DTT buffer solution (pH7.4). […]
PROPERTY_MEASURED: IC50

Provide one value: measured IC50 of COc1cc(NC(=O)c2ccc(-c3ccccc3OC(C)C)cc2)ccc1S(N)(=O)=O
1200 nM

Tell me IC50 reported for CS(=O)(=O)c1ccc(NC(=O)c2ccc(-c3ccccc3C(F)(F)F)c(CO)c2)cc1
250 nM

Output measured IC50 for this item: CS(=O)(=O)c1ccc(NC(=O)c2ccc(-c3ccccc3OC(F)(F)F)c(CN3CCCOCC3)c2)cc1
< 10000 nM

Please give measured IC50 of the following entry: COc1cc(NC(=O)c2ccc(-c3ccccc3C(F)(F)F)c(COC(C)=O)c2)ccc1S(N)(=O)=O
210 nM

Indicate its recorded IC50; the molecule in question is CS(=O)(=O)c1ccc(NC(=O)c2ccc(-c3ccccc3OC(F)(F)F)c(CN[C@@H]3CCCc4ccccc43)c2)cc1
< 100 nM

Identify measured IC50 corresponding to COc1cc(NC(=O)c2ccc(-c3ccccc3OC(F)(F)F)c(CNC3=NCCO3)c2)ccc1S(N)(=O)=O
230 nM

Could you please provide reported IC50 for CCOC(=O)Nc1cc(C(=O)Nc2ccc(S(N)(=O)=O)c(OC)c2)ccc1-c1ccccc1CC ? Thanks!
< 10000 nM

----------
Target: aldosterone receptor (Rattus norvegicus, UniProt P22199)
Construct: centrifuged at 105,000 g for 30 minutes, and then a supernatant was collected as a renal soluble fraction
Sequence (P22199 1-981): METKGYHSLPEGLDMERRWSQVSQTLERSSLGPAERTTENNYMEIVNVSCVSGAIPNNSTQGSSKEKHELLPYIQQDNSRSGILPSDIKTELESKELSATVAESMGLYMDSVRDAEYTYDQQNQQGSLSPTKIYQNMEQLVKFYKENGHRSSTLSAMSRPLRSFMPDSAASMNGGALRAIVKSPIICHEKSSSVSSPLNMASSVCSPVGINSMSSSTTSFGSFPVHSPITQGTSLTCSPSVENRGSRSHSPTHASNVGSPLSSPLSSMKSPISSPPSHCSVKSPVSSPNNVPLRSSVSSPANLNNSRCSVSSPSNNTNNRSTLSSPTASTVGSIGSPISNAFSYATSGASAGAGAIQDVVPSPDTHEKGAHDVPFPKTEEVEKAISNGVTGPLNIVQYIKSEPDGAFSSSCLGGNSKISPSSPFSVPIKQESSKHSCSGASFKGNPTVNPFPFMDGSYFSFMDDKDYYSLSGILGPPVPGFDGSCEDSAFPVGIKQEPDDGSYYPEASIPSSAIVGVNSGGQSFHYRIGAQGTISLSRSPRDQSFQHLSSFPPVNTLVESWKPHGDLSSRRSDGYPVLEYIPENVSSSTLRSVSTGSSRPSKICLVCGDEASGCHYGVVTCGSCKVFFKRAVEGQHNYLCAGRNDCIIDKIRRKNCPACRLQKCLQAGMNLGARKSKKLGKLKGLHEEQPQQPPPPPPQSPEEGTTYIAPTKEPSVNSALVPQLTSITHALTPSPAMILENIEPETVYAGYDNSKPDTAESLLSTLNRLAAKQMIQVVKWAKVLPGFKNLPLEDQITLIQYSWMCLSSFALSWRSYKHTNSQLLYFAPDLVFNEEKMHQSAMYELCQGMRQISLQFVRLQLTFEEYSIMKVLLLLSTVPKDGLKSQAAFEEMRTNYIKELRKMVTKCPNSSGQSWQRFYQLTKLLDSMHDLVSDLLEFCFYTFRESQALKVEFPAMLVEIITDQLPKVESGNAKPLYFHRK
Test: Binding inhibition test for aldosterone receptor ([3H]aldosterone, rat renal soluble fraction)
Conditions: [3H]aldosterone 2 nM, rat renal soluble fraction, in the presence of 2 μM RU-486, 4° C. about 18 hours; read-out: MR IC50
PROPERTY_MEASURED: pIC50
pIC50 (log units): -log10 of the concentration in mol/L.

Provide pIC50 value for the following compound: COc1cc(NC(=O)c2ccc(-c3ccccc3OC(F)(F)F)c(CN3CCCOCC3)c2)ccc1S(N)(=O)=O
6.82

Answer with the recorded pIC50 of COc1cc(NC(=O)c2ccc(-c3ccccc3OC(F)(F)F)c(CN3CC(F)(F)C3)c2)ccc1S(N)(=O)=O only.
6.60

Answer with the recorded pIC50 of CCOCc1cc(NC(=O)c2ccc(S(N)(=O)=O)c(OC)c2)ccc1-c1ccccc1C(F)(F)F only.
7.00

Return reported pIC50. Input compound: COc1cc(NC(=O)c2ccc(-c3ccccc3C(F)(F)F)c(CN3CCCC3)c2)ccc1S(N)(=O)=O
6.06

For COc1cc(C(=O)Nc2ccc(-c3ccccc3C(F)(F)F)c(CCl)c2)ccc1S(N)(=O)=O , write its pIC50.
6.72

Give the reported pIC50 for this compound. COCCNCc1cc(NC(=O)c2ccc(S(N)(=O)=O)c(OC)c2)ccc1-c1ccccc1C(F)(F)F
6.89

Fill in reported pIC50 for this entry: COc1cc(NC(=O)c2ccc(-c3ccccc3OC(F)(F)F)c(CN3CCC(F)(F)CC3)c2)ccc1S(N)(=O)=O
6.74

Complete the entry with pIC50 for COc1cc(NC(=O)c2ccc(-c3ccccc3C(F)(F)F)c(CNC(C)C)c2)ccc1S(N)(=O)=O
6.27

Give the value of pIC50 reported for the following: COc1cc(NC(=O)c2ccc(-c3ccccc3C(F)(F)F)c(COCC(OC)OC)c2)ccc1S(N)(=O)=O
7.09

Give the reported value of pIC50 for this record: COc1cc(C(=O)Nc2ccc(-c3ccccc3C(F)(F)F)c(CO)c2)ccc1S(N)(=O)=O
6.60

Give a short answer stating reported pIC50 for CS(=O)(=O)c1ccc(NC(=O)c2ccc(-c3ccccc3OC(F)(F)F)c(CN3CC[C@@H](F)C3)c2)cc1 .
6.55

Answer with reported pIC50 of COc1cc(NC(=O)c2ccc(-c3ccccc3OC(F)(F)C(F)F)c(CO)c2)ccc1S(N)(=O)=O
6.36

Give recorded pIC50. COc1cc(NC(=O)c2ccc(-c3ccc(F)cc3F)c(CNCC(F)F)c2)ccc1S(N)(=O)=O
5.77

Identify measured pIC50 associated with COc1cc(NC(=O)c2ccc(-c3ccccc3C)c(CNCC(F)F)c2)ccc1S(N)(=O)=O
6.20

Give reported pIC50 value for COc1cc(NC(=O)c2ccc(-c3ccccc3F)c(CNCC(F)F)c2)ccc1S(N)(=O)=O
5.92

Give me measured pIC50, please, for this compound: COc1cc(NC(=O)c2ccc(-c3ccccc3-c3nc(C)no3)c(CO)c2)ccc1S(N)(=O)=O
6.35

Provide one value: measured pIC50 of CCC(CC)NCc1cc(NC(=O)c2ccc(S(N)(=O)=O)c(OC)c2)ccc1-c1ccccc1OC(F)(F)F
6.34

Complete the entry with pIC50 for COc1ccc(-c2ccc(C(=O)Nc3ccc(S(N)(=O)=O)c(OC)c3)cc2CO)c(C(F)(F)F)c1
6.85

Give a short answer stating reported pIC50 for COc1cc(NC(=O)c2ccc(-c3ccccc3OC(F)(F)F)cc2)ccc1S(N)(=O)=O .
6.21

Output measured pIC50 for this item: COC(=O)c1cc(OC)ccc1-c1ccc(C(=O)Nc2ccc(S(N)(=O)=O)c(OC)c2)cc1
5.62

Identify pIC50 associated with the compound COc1cc(NC(=O)c2ccc(-c3ccccc3C(F)(F)F)c(CN3CCC3)c2)ccc1S(N)(=O)=O
6.09

Entry COc1cc(NC(=O)c2ccc(-c3ccccc3C(F)(F)F)c(CNC[C@H]3CCCO3)c2)ccc1S(N)(=O)=O needs its pIC50 filled in; supply it.
6.59

Output measured pIC50 for this item: CCN(CC)Cc1cc(C(=O)Nc2ccc(S(N)(=O)=O)c(OC)c2)ccc1-c1ccccc1OC(F)(F)F
7.00

Give the measured pIC50 for COc1cc(C(=O)Nc2ccc(-c3ccccc3C(F)(F)F)c(Cn3cccn3)c2)ccc1S(N)(=O)=O
6.68
